# Organism: Homo sapiens
# ASSAY_INFO: Selectivity ratio, ratio of Ki for CatL (unknown origin) to Ki for Cal1 (unknown origin)
Decision: Selectivity ratio >= 20 yields criterion met, all other cases yield criterion not met.

Look over these answered cases.
Cc1ccc(S(=O)(=O)N2CCC[C@@H]2C(=O)NC(Cc2ccccc2)C(=O)C(N)=O)cc1 (mixture of isomers)
criterion not met
C[C@H]1C[C@H](C(=O)NC(Cc2ccccc2)C(=O)C(N)=O)N(Cc2ccccc2)C1=O (mixture of isomers)
criterion not met
NC(=O)C(=O)C(Cc1ccccc1)NC(=O)[C@H]1CCC(=O)N1Cc1ccccc1OC(F)(F)F (mixture of isomers)
criterion met
O=C(NC1CC1)C(=O)C(Cc1ccccc1)NC(=O)[C@H]1CCC(=O)N1Cc1ccccc1Cl (stereo partly specified)
criterion met
CCCCC(NC(=O)[C@H]1CCC(=O)N1Cc1ccccc1)C(=O)C(N)=O (mixture of isomers)
criterion met

Please indicate if the recorded Selectivity ratio for NC(=O)C(=O)C(Cc1ccccc1)NC(=O)c1cccc(=O)n1Cc1ccccc1 (stereo unspecified) meets or exceeds 20. criterion not met

Please indicate if the recorded Selectivity ratio for NC(=O)C(=O)C(Cc1ccccc1)NC(=O)[C@H]1CCC(=O)N1c1ccccc1 (mixture of isomers) meets or exceeds 20. criterion not met
